- Test system: DMPK
- measurement context: concentration: 1 μM,replicates: in singlicate; n = 1;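 note: KINOMEscan kinase panel screen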

>  <compound>
C[C@@H]1CCN(C(=O)CC#N)C[C@@H]1N(C)c1ncnc2[nH]ccc12

>  <%Inh>
24%

$$$$
>  <compound>
Cl.Cl.NC[C@H](CC1CCCCC1)NC(=O)c1cc(Br)c(-c2ccnc3[nH]ccc23)s1 [GSK1581427]

>  <%Inh>
91.7%

$$$$
>  <compound>
CN(C)CCOc1ccc(-c2cc(-c3c[nH]nc3-c3ccccn3)ccn2)cc1 [GW835314]

>  <%Inh>
0%

$$$$
>  <compound>
Nc1nc(Nc2ccccc2)cc(-c2ccc3c(N)n[nH]c3c2)n1 [GSK2225749]

>  <%Inh>
0%

$$$$
>  <compound>
Cc1n[nH]c2ccc(-c3cc(OC[C@@H](N)Cc4ccccc4)cnc3-c3ccoc3)cc12.O=C(O)C(F)(F)F.O=C(O)C(F)(F)F [GSK507358]

>  <%Inh>
92.8%

$$$$
>  <compound>
CNC(=O)c1ccccc1Sc1ccc2c(/C=C/c3ccccn3)n[nH]c2c1

>  <%Inh>
0%

$$$$
>  <compound>
C[C@H]1Oc2cc(cnc2N)-c2c(nn(C)c2C#N)CN(C)C(=O)c2ccc(F)cc21

>  <%Inh>
0%

$$$$
>  <compound>
CCN(CC)CCOc1ccc(Nc2ncc3cc(-c4c(Cl)cccc4Cl)c(=O)n(C)c3n2)cc1 [SB-601273]

>  <%Inh>
24%

$$$$
>  <compound>
O=C(NCCNc1ccnc(NCc2ccc(F)cc2)n1)c1cc2ccccc2s1 [GSK1379944]

>  <%Inh>
0%

$$$$
>  <compound>
NC(=O)c1cc(-c2ccccc2)cc2c(C3CCNCC3)c[nH]c12 [GSK301362]

>  <%Inh>
30%

$$$$
>  <compound>
COc1ccc(C[C@@H](CN)NC(=O)c2cc(Br)c(-c3ccnc4[nH]ccc34)s2)cc1.Cl.Cl [GSK1389063]

>  <%Inh>
28%

$$$$
>  <compound>
Cc1cc2cn[nH]c2cc1-c1cccc2c(N)c(C(N)=O)nnc12

>  <%Inh>
0%

$$$$
>  <compound>
Cl.Cl.NC[C@H](Cc1ccc(C(F)(F)F)cc1)NC(=O)c1cc(Br)c(-c2ccnc3[nH]ccc23)s1 [GSK1487252]

>  <%Inh>
0%

$$$$
>  <compound>
CC(C)Nc1cc(-c2ccc3c(N)n[nH]c3c2)nc(N)n1 [GSK2221681]

>  <%Inh>
0%

$$$$
>  <compound>
Cc1ccc(-n2nc(C(C)(C)C)cc2NC(=O)Nc2ccc(OCCN3CCOCC3)c3ccccc23)cc1 [GW839464]

>  <%Inh>
4%

$$$$
>  <compound>
CN(C)CC(O)COc1ccc(Nc2nccc(-c3cnn4nc(N5CCOCC5)ccc34)n2)cc1 (stereo not shown) [GW767488]

>  <%Inh>
20%

$$$$

---

- Test system: MUSK
- measurement context: concentration: 1 μM,replicates: in singlicate; n = 1
quantity: %Inh (%)

>  <molecule>
C[C@H]1Oc2cc(cnc2N)-c2c(nn(C)c2C#N)CN(C)C(=O)c2ccc(F)cc21

>  <quantity>
%Inh

>  <scale unit>
%

>  <measurement>
11

$$$$
>  <molecule>
C[C@@H]1CCN(C(=O)CC#N)C[C@@H]1N(C)c1ncnc2[nH]ccc12

>  <quantity>
%Inh

>  <scale unit>
%

>  <measurement>
11

$$$$
>  <molecule>
Cl.Cl.Nc1nc(-c2ccc3c(N)n[nH]c3c2)cc(N2CCCC(NC(=O)c3ccccc3)C2)n1 (centres unmarked)

>  <quantity>
%Inh

>  <scale unit>
%

>  <measurement>
0

$$$$
>  <molecule>
Cc1ccc2c(-c3ccncc3)c(-c3ccc(F)cc3)nn2c1.Cl

>  <quantity>
%Inh

>  <scale unit>
%

>  <measurement>
0

$$$$
>  <molecule>
Cl.Oc1cc(-c2nc(-c3ccccc3)[nH]c2-c2ccncc2)ccc1Cl

>  <quantity>
%Inh

>  <scale unit>
%

>  <measurement>
0

$$$$

---

- Test system: CAMKK1
- measurement context: concentration: 1 μM,replicates: in singlicate; n = 1
Decide using %Inh alone. Strictly below 20%: MET. Equal to or above 20%: NOT MET.

>  <compound>
C[C@H]1Oc2cc(cnc2N)-c2c(nn(C)c2C#N)CN(C)C(=O)c2ccc(F)cc21

>  <qualitative label>
NOT MET

$$$$
>  <compound>
C[C@@H]1CCN(C(=O)CC#N)C[C@@H]1N(C)c1ncnc2[nH]ccc12

>  <qualitative label>
MET

$$$$
>  <compound>
Cl.Oc1cc(-c2nc(-c3ccccc3)[nH]c2-c2ccncc2)ccc1Cl

>  <qualitative label>
MET

$$$$
>  <compound>
CNC(=O)c1ccccc1Sc1ccc2c(/C=C/c3ccccn3)n[nH]c2c1

>  <qualitative label>
MET

$$$$
>  <compound>
CN(C)CC(O)COc1ccc(Nc2nccc(-c3cnn4nc(N5CCOCC5)ccc34)n2)cc1 (centres unmarked)

>  <qualitative label>
NOT MET

$$$$
>  <compound>
Cc1occc1-c1nc(N)c(OC[C@@H](N)Cc2c[nH]c3ccccc23)cc1-c1cc2c(C)n[nH]c2cn1

>  <qualitative label>
NOT MET

$$$$
>  <compound>
C[C@@H](Oc1cc(-c2cnn(C3CCNCC3)c2)cnc1N)c1c(Cl)ccc(F)c1Cl

>  <qualitative label>
NOT MET

$$$$

---

- Test system: MEK3
- Construct: gene MAP2K3
- measurement context: concentration: 1 μM,replicates: in singlicate; n = 1
quantity: %Inh (%)

>  <compound smiles>
Cc1ccc(-n2nc(C(C)(C)C)cc2NC(=O)Nc2ccc(OCCN3CCOCC3)c3ccccc23)cc1

>  <quantity>
%Inh

>  <measurement>
0

$$$$
>  <compound smiles>
CC(C)N1C(=O)Cc2cc(Nc3ncc(C(F)(F)F)c(NCc4cccc(S(C)(=O)=O)c4)n3)ccc21

>  <quantity>
%Inh

>  <measurement>
51

$$$$
>  <compound smiles>
Cc1n[nH]c2ccc(-c3cc(OC[C@@H](N)Cc4ccccc4)cnc3-c3ccoc3)cc12.O=C(O)C(F)(F)F.O=C(O)C(F)(F)F

>  <quantity>
%Inh

>  <measurement>
82

$$$$
>  <compound smiles>
CCN(CC)CCCCNc1ncc2cc(-c3c(Cl)cccc3Cl)c(NC(=O)NC(C)(C)C)nc2n1

>  <quantity>
%Inh

>  <measurement>
34

$$$$
>  <compound smiles>
Cc1cc(C(=O)Nc2ccc(Oc3ccc4nc(NC(=O)C5CC5)cn4n3)cc2)nn1-c1ccccc1

>  <quantity>
%Inh

>  <measurement>
0

$$$$
>  <compound smiles>
Nc1nc(Nc2ccccc2)cc(-c2ccc3c(N)n[nH]c3c2)n1

>  <quantity>
%Inh

>  <measurement>
5

$$$$

---

- System: IRAK4
- measurement context: concentration: 1 μM,replicates: in singlicate; n = 1
quantity: %Inh (%)

>  <compound smiles>
CN(C)CCOc1ccc(-c2cc(-c3c[nH]nc3-c3ccccn3)ccn2)cc1

>  <measurement>
12

$$$$
>  <compound smiles>
Cl.Oc1cc(-c2nc(-c3ccccc3)[nH]c2-c2ccncc2)ccc1Cl

>  <measurement>
0

$$$$
>  <compound smiles>
Cc1ccc2c(-c3ccncc3)c(-c3ccc(F)cc3)nn2c1.Cl

>  <measurement>
0

$$$$
>  <compound smiles>
O=C(NCCNc1ccnc(NCc2ccc(F)cc2)n1)c1cc2ccccc2s1

>  <measurement>
18

$$$$
>  <compound smiles>
Cc1occc1-c1nc(N)c(OC[C@@H](N)Cc2c[nH]c3ccccc23)cc1-c1cc2c(C)n[nH]c2cn1

>  <measurement>
1

$$$$
>  <compound smiles>
O=C(NCCCN1CCOC1=O)c1cnc(NCc2cc(Cl)ccc2Cl)nc1NC1CCCC1

>  <measurement>
6

$$$$
>  <compound smiles>
NC(=O)c1cc(-c2ccccc2)cc2c(C3CCNCC3)c[nH]c12

>  <measurement>
28

$$$$
>  <compound smiles>
C[C@@H](Oc1cc(-c2cnn(C3CCNCC3)c2)cnc1N)c1c(Cl)ccc(F)c1Cl

>  <measurement>
0

$$$$

---

- System: PKN1
- measurement context: concentration: 1 μM,replicates: in singlicate; n = 1

>  <molecule>
CC(C)N1C(=O)Cc2cc(Nc3ncc(C(F)(F)F)c(NCc4cccc(S(C)(=O)=O)c4)n3)ccc21

>  <scale unit>
%

>  <%Inh>
24

$$$$
>  <molecule>
O=C(NCCCN1CCOC1=O)c1cnc(NCc2cc(Cl)ccc2Cl)nc1NC1CCCC1

>  <scale unit>
%

>  <%Inh>
0

$$$$
>  <molecule>
COc1ccc(C[C@@H](CN)NC(=O)c2cc(Br)c(-c3ccnc4[nH]ccc34)s2)cc1.Cl.Cl [GSK1389063]

>  <scale unit>
%

>  <%Inh>
95.8

$$$$
